B1: library; a variant is named by its letters at N, in order (parent)
chain: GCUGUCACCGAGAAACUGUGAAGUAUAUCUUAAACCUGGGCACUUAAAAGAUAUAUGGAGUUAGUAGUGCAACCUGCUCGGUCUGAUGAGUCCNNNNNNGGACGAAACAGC

variants of: B1; experiment: normalized RNA/DNA level with ligand (relative to sTRSVctl = 100) (log10 (% of sTRSVctl)); HEK293T; ligand: cyclic di-GMP (c-di-GMP-II aptamer); ligand concentration (+) RNA-Seq: 1 mM; higher = less ribozyme self-cleavage, higher mRNA level; details: reporter: mCherry (pCS4076), ligand present: yes
readoutName: normalized RNA/DNA level with ligand (log10)
Lab note: jot down the number only; don't add units.

>>> measurednumber("UUUAAU")
1.84
>>> measurednumber("UGGUAG")
1.82
>>> measurednumber("GCCGGU")
1.79

Could you tell me which normalized RNA/DNA level with ligand (log10) is on file for CGAGGG ?
1.76

Another variant to check: UAUUCU
1.89

Another variant to check: GAAACU
1.79
